target: recombinant homotrimeric HA A/swine/Ontario/01911-2/99 H4N6 (Influenza A virus A/Swine/Ontario/01911-2/99 (H4N6)); assay: protein microarray, purified IgG, trimeric HA; settings: remark: other sources report otherwise
Endpoint: Trimeric HA Binding: RLU (RLU)

>  <Binder>
TCN-523 (5248_A17) (antibody, V domains shown) VH: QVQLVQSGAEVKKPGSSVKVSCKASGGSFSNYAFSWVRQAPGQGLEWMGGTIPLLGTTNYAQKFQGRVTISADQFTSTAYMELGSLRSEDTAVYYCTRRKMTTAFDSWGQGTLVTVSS VL: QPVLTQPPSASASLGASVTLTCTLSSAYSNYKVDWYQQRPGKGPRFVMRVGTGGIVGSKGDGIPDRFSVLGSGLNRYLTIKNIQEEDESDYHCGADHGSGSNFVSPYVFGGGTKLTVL

>  <Endpoint>
Trimeric HA Binding: RLU

>  <Measured number>
85

$$$$
